- System: PCSK9
- assay protocol: In vitro PCSK9 inhibition test: Western blot of PCSK9/ProPCSK9 in culture medium and cells of HepG2 cells
- Format: cell-based, human
- particulars: 1.0 micro gram/mL, HepG2, 24 hours, percentage with respect to total amount of PCSK9 in the control
- Method: HepG2 cells derived from human liver cancer (5×10^5 cells/mL, 0.25 mL/well) were seeded on a 48-well plate. […] PCSK9 in the culture medium and the cells was detected by Western blotting. Using an image analysis software (ImageLab), band intensity of the detected PCSK9 was quantified. The quantitative value of each band intensity was corrected based on the quantitative value of the band intensity of glyceraldehyde-3-phosphate dehydrogenase (GAPDH) that is a loading control for Western blotting. […]
PCSK9 (in cells) by entry:
Field: numeric (%). Do not append units.

Consider the worked cases shown below.
[[record]]
compound = "CC(C)c1c(C(=O)Nc2ccccc2)c(-c2ccccc2)c(-c2ccc(F)cc2)n1CC[C@@H](O)C[C@@H](O)CC(=O)O [Atr, atorvastatin, reference compound]"
unit_tag = "%"
assay_value = 49.4

[[record]]
compound = "Cc1ccccc1[C@@H]1OCC2(C)C3C[C@H](OC(=O)c4ccc(C#N)cc4)[C@@]4(C)Oc5cc(-c6cccnc6)oc(=O)c5[C@H](O)C4[C@@]3(C)CC[C@@H]2O1 (stereo partly shown)"
unit_tag = "%"
assay_value = 20.7

[[record]]
compound = "CC(=O)OCC1(C)[C@@H](OC(C)=O)CC[C@]2(C)[C@H]3[C@@H](O)c4c(cc(-c5cccnc5)oc4=O)O[C@]3(C)[C@@H](OC(=O)c3ccc(C#N)cc3)C[C@@H]12 (stereo partly shown)"
unit_tag = "%"
assay_value = 40.3


Query compound follows.
Query string: Find the measured PCSK9 (in cells): item CC(=O)OC[C@@]1(C)[C@@H]2C[C@H](OC(C)=O)[C@@]3(C)Oc4cc(-c5cccnc5)oc(=O)c4[C@H](O)[C@@H]3[C@@]2(C)CC[C@@H]1OC(C)=O [PPPA, pyripyropene A, reference compound] , target or system PCSK9.
Result string: 35.7

---

- Test system: PCSK9
- assay protocol: In vitro PCSK9 inhibition test: Western blot of PCSK9/ProPCSK9 in culture medium and cells of HepG2 cells
- Type: cell-based, human
- particulars: 10 micro gram/mL, HepG2, 24 hours, percentage with respect to total amount of PCSK9 in the control
measure name: ProPCSK9 (in cells) (%)
Express the result in % but write the number alone.

[[record]]
compound = "Cc1ccccc1[C@@H]1OCC2(C)C3C[C@H](OC(=O)c4ccc(C#N)cc4)[C@@]4(C)Oc5cc(-c6cccnc6)oc(=O)c5[C@H](O)C4[C@@]3(C)CC[C@@H]2O1 (stereo partly shown) [PRD125]"
measure_name = "ProPCSK9 (in cells)"
unit_tag = "%"
assay_value = 10.4


Query string: What value of measured ProPCSK9 (in cells) is listed for CC(C)c1c(C(=O)Nc2ccccc2)c(-c2ccccc2)c(-c2ccc(F)cc2)n1CC[C@@H](O)C[C@@H](O)CC(=O)O [Atr, atorvastatin, reference compound] ?
Result string: 97.6

Query string: Can you handle CC(=O)OC[C@@]1(C)[C@@H]2C[C@H](OC(C)=O)[C@@]3(C)Oc4cc(-c5cccnc5)oc(=O)c4[C@H](O)[C@@H]3[C@@]2(C)CC[C@@H]1OC(C)=O [PPPA, pyripyropene A, reference compound] next?
Result string: 19.7

Query string: Next compound up: CC(=O)OCC1(C)[C@@H](OC(C)=O)CC[C@]2(C)[C@H]3[C@@H](O)c4c(cc(-c5cccnc5)oc4=O)O[C@]3(C)[C@@H](OC(=O)c3ccc(C#N)cc3)C[C@@H]12 (stereo partly shown) [PRD017]
Result string: 6.6
